# ASSAY_SYSTEM: human M2 receptor (Homo sapiens)
# Sequence (P08172 whole entry): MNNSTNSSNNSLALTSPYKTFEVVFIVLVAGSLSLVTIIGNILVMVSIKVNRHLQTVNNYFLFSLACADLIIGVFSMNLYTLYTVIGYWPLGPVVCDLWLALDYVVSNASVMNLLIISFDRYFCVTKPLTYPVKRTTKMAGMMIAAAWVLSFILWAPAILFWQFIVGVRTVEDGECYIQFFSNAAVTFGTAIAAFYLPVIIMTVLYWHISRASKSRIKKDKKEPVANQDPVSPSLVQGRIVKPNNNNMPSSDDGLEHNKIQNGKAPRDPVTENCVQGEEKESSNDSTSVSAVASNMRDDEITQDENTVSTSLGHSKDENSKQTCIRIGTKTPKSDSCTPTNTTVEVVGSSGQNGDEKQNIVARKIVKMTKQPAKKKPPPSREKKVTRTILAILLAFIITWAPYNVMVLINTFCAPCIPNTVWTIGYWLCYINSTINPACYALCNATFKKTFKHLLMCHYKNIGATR
# TEST_DETAILS: Functional M2-GIRK1/4 activation test: allosteric potency (EC50) and efficiency
# MEASUREMENT_SETUP: Receptor activity EC50, CHO-DUKX-M2-GIRK cells; acetylcholine at EC20; in some cases mean of two or more determinations
# EC50 listing for each entry below
TEST_READOUT: EC50

1. CC1C(=O)N(c2ccc3c(=O)c(C(=O)N[C@@H](C4CC4)C(F)(F)F)cn(-c4ncc(F)cc4F)c3n2)CC1O (single isomer, unassigned) [Example 106]; 0.165 µM
2. CCC(NC(=O)c1cn(-c2ncc(F)cc2F)c2nc(N3CCNC3=O)ccc2c1=O)C(F)(F)C(F)(F)F (single isomer, unassigned) [Example 165]; 0.013 µM
3. CC[C@H](NC(=O)c1cn(-c2ncc(F)cc2F)c2nc(N(C)C)ccc2c1=O)C(F)(F)F [Example 130]; 0.053 µM
4. CC(NC(=O)c1cn(-c2ncc(F)cc2F)c2nc(N3CC4(COC4)C3)ccc2c1=O)C(F)(F)C(F)(F)F (single isomer, unassigned) [Example 181]; 0.22 µM
5. CC[C@@H](NC(=O)c1cn(-c2ncccc2F)c2nc(N3C[C@@H](O)CC3=O)ccc2c1=O)C(F)(F)F [Example 140]; 0.253 µM
6. O=C(NC(c1ccccc1Cl)C(F)(F)F)c1cn(-c2ncc(F)cc2F)c2nc(N3CCNC3=O)ccc2c1=O (single isomer, unassigned) [Example 149]; 0.032 µM
7. C[C@@H]1CN(c2ccc3c(=O)c(C(=O)NC(C)(C)C(F)F)cn(-c4ncc(F)cc4F)c3n2)C(=O)N1 [Example 144]; 0.15 µM
